Values from patent US20220389394A1

# tested target: T1, his-tagged recombinant human Flt3 receptor (Sino Biologicals) (human, UniProt P36888 27-541, limits assumed)
# T1 construct: Bought protein; also called human recombinant FLT3; not shown: His tag
# T1 sequence (looked up): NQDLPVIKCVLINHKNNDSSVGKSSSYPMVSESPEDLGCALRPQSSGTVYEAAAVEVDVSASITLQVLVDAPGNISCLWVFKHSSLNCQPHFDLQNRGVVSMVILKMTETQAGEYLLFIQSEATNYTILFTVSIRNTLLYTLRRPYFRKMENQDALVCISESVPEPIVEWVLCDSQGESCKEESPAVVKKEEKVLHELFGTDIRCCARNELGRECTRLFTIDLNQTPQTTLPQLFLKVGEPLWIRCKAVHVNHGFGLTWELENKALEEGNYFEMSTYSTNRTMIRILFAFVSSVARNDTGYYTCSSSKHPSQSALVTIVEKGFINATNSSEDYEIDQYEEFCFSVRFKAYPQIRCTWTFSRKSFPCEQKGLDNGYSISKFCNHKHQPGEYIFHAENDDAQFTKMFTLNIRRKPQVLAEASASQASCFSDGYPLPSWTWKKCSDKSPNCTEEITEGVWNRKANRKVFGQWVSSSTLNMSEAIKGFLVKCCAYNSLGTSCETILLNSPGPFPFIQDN
# assay method text: ELISA; His-tagged recombinant human Flt3 on nickel plate, serially diluted Flt3L-Fc, anti-human (H+L)-HRP, 4PL fit
Form field: EC50 (one value per entry).
Entry rule: numbers only, all in pM.

Below are worked cases with known answers.
Reported EC50, binder human FLT3-ligand (S128A/S151A) human hingeless IgG1 fusion protein (SEQ ID NO:5) (Fc fusion, also called Aglyco-FLT3L ECD (S128A/S151A) hingeless hG1) TQDCSFQHSPISSDFAVKIRELSDYLLQDYPVTVASNLQDEELCGGLWRLVLAQRWMERLKTVAGSKMQGLLERVNTEIHFVTKCAFQPPPSCLRFVQTNIARLLQETSEQLVALKPWITRQNFARCLELQCQPDSSTLPPPWSPRPLEATAPTAPQGGPSVFLFPPKPKDTLMISRTPEVTCVVVDVSHEDPEVKFNWYVDGVEVHNAKTKPREEQYNSTYRVVSVLTVLHQDWLNGKEYKCKVSNKALPAPIEKTISKAKGQPREPQVYTLPPSREEMTKNQVSLTCLVKGFYPSDIAVEWESNGQPENNYKTTPPVLDSDGSFFLYSKLTVDKSRWQQGNVFSCSVMHEALHNHYTQKSLSLSPGK : ____
110

Can you look up the measured EC50 of human FLT3-ligand (Δ10 amino acid) human hingeless IgG1 fusion protein (SEQ ID NO:7) (Fc fusion) TQDCSFQHSPISSDFAVKIRELSDYLLQDYPVTVASNLQDEELCGGLWRLVLAQRWMERLKTVAGSKMQGLLERVNTEIHFVTKCAFQPPPSCLRFVQTNISRLLQETSEQLVALKPWITRQNFSRCLELQCQPDSSTLPPPWSPRPGGPSVFLFPPKPKDTLMISRTPEVTCVVVDVSHEDPEVKFNWYVDGVEVHNAKTKPREEQYNSTYRVVSVLTVLHQDWLNGKEYKCKVSNKALPAPIEKTISKAKGQPREPQVYTLPPSREEMTKNQVSLTCLVKGFYPSDIAVEWESNGQPENNYKTTPPVLDSDGSFFLYSKLTVDKSRWQQGNVFSCSVMHEALHNHYTQKSLSLSPGK for me?
120

Continuing:
Recorded EC50 for human FLT3-ligand (Δ5 amino acid) human hingeless IgG1 fusion protein (SEQ ID NO:2) (Fc fusion, also called FLT3L ECD (Δ C-term 5aa (PTAPQ)) - hingeless hG1) TQDCSFQHSPISSDFAVKIRELSDYLLQDYPVTVASNLQDEELCGGLWRLVLAQRWMERLKTVAGSKMQGLLERVNTEIHFVTKCAFQPPPSCLRFVQTNISRLLQETSEQLVALKPWITRQNFSRCLELQCQPDSSTLPPPWSPRPLEATAGGPSVFLFPPKPKDTLMISRTPEVTCVVVDVSHEDPEVKFNWYVDGVEVHNAKTKPREEQYNSTYRVVSVLTVLHQDWLNGKEYKCKVSNKALPAPIEKTISKAKGQPREPQVYTLPPSREEMTKNQVSLTCLVKGFYPSDIAVEWESNGQPENNYKTTPPVLDSDGSFFLYSKLTVDKSRWQQGNVFSCSVMHEALHNHYTQKSLSLSPGK , please?
130
